Listed here are variants together with their documented protein stability index.
B1: CSNK1G1 (parent)
chain: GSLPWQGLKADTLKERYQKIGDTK

variants of: B1; assay: protein stability index of a GFP-peptide fusion (GPS, HEK-293T) (PSI 1-6); higher = more stable; settings: c terminus: a fixed tail appended;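 further: lentivirally expressed fusions sorted by FACS into six bins by GFP to DsRed ratio, PSI derived from sequencing read proportions per bin multiplied by bin number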
The answer should be a number; do not append a unit.

Known results for variants:
P4G	4.02
E15H	3.43

Query: Name the recorded protein stability index of the variant listed here: Q18N
Reply: 4.11

Query: Name the recorded protein stability index of the variant listed here: G21K
Reply: 4.71

Query: Name the recorded protein stability index of the variant listed here: K19V
Reply: 3.83

Query: Name the recorded protein stability index of the variant listed here: K19F
Reply: 3.05

Query: Name the recorded protein stability index of the variant listed here: A10Q
Reply: 4

Query: Name the recorded protein stability index of the variant listed here: Q18C
Reply: 3.76

Query: Name the recorded protein stability index of the variant listed here: L3Q
Reply: 4.63

Query: Name the recorded protein stability index of the variant listed here: A10W
Reply: 3.56

Query: Name the recorded protein stability index of the variant listed here: T23C
Reply: 3.4

Query: Name the recorded protein stability index of the variant listed here: G7A
Reply: 4.39

Query: Name the recorded protein stability index of the variant listed here: K24A
Reply: 4.01

Query: Name the recorded protein stability index of the variant listed here: T12K
Reply: 4.28

Query: Name the recorded protein stability index of the variant listed here: T12A
Reply: 3.99

Query: Name the recorded protein stability index of the variant listed here: G7N
Reply: 4.64

Query: Name the recorded protein stability index of the variant listed here: K14R
Reply: 3.8

Query: Name the recorded protein stability index of the variant listed here: T23W
Reply: 2.78

Query: Name the recorded protein stability index of the variant listed here: K14H
Reply: 4.37

Query: Name the recorded protein stability index of the variant listed here: K24W
Reply: 2.95

Query: Name the recorded protein stability index of the variant listed here: E15M
Reply: 3.51

Query: Name the recorded protein stability index of the variant listed here: L13S
Reply: 4.62
